target.desc: Collagenase 3 (Homo sapiens, UniProt P45452)
assay.summary: In vitro inhibition of human recombinant collagenase-3 (Matrix metalloprotease-13)
test.readout: IC50 (nM)

[I] C=C1C[C@H](C(=O)NO)N(S(=O)(=O)c2ccc(OCCC)cc2)C1
[II] COCCOc1ccc(S(=O)(=O)N2CC(NOC)C[C@@H]2C(=O)NO)cc1 (stereo not given in full)
Task for the reader: decide whether I or II has the larger IC50. Provide the label of your selected option as the answer.
II
(II: 8 nM, I: 1 nM)

====

pIC50: −log10 of the molar value.
Heads up, these molecules all have pIC50 values measured for 72 kDa type IV collagenase (Homo sapiens).
test.readout: pIC50

# query.smiles, test.readout, quantitative.result
data = [
    ("CO/N=C1/C[C@H](C(=O)NO)N(S(=O)(=O)c2ccc(Oc3ccncc3)cc2)C1", "pIC50", 9.52),
]

[a] COc1ccc(S(=O)(=O)N2C/C(=N\O)C[C@@H]2C(=O)NO)cc1
[b] C=C1C[C@H](C(=O)NO)N(S(=O)(=O)c2ccc(OCCC)cc2)C1
# argmax over pIC50 for candidates a and b Let me know the label of the one you choose.
a
(a: 9.70, b: 8.70)

====

target.desc: Collagenase 3 (Homo sapiens, UniProt P45452)
assay.summary: In vitro inhibition of human recombinant collagenase-3 (Matrix metalloprotease-13)
test.readout: IC50 (nM)

As a guide, the following entries are already answered.
# compound, target.desc, IC50, nM
data = [
    ("CCCCOc1ccc(S(=O)(=O)N2CC(NOC)C[C@@H]2C(=O)NO)cc1 (stereo not given in full)", "Collagenase 3 (Homo sapiens, UniProt P45452)", 2),
    ("CONC1C[C@H](C(=O)NO)N(S(=O)(=O)c2ccc(OC)cc2)C1 (stereo not given in full)", "Collagenase 3 (Homo sapiens, UniProt P45452)", 3),
    ("CCCCOc1ccc(S(=O)(=O)N2C/C(=N\\OC(C)(C)C)C[C@@H]2C(=O)NO)cc1", "Collagenase 3 (Homo sapiens, UniProt P45452)", 0.4),
    ("C=C1C[C@H](C(=O)NO)N(S(=O)(=O)c2ccc(OC)cc2)C1", "Collagenase 3 (Homo sapiens, UniProt P45452)", 4),
    ("COc1ccc(S(=O)(=O)N2CC(NOC(C)(C)C)C[C@@H]2C(=O)NO)cc1 (stereo not given in full)", "Collagenase 3 (Homo sapiens, UniProt P45452)", 3),
    ("C=C1C[C@H](C(=O)NO)N(S(=O)(=O)c2ccc(OCCCC)cc2)C1", "Collagenase 3 (Homo sapiens, UniProt P45452)", 0.7),
    ("O=C(NO)[C@H]1C/C(=N/Oc2ccccc2)CN1S(=O)(=O)c1ccc(Oc2ccncc2)cc1", "Collagenase 3 (Homo sapiens, UniProt P45452)", 0.4),
    ("CCCCOc1ccc(S(=O)(=O)N2C/C(=N\\OCC)C[C@@H]2C(=O)NO)cc1", "Collagenase 3 (Homo sapiens, UniProt P45452)", 0.5),
    ("CC(C)(C)O/N=C1/C[C@H](C(=O)NO)N(S(=O)(=O)c2ccc(Oc3ccc(F)cc3)cc2)C1", "Collagenase 3 (Homo sapiens, UniProt P45452)", 0.2),
]

[a] CCOc1ccc(S(=O)(=O)N2C/C(=N\OC)C[C@@H]2C(=O)NO)cc1
[b] CCCCOc1ccc(S(=O)(=O)N2C/C(=N\OC)C[C@@H]2C(=O)NO)cc1
Sorting by IC50 in descending order, would a or b appear first? Refer to your chosen entry by its label in the reply.
a
(a: 0.7 nM, b: 0.3 nM)
